subject-of-test: LRRK2 (G2019S mutation, GST-LRRK2 (amino acids 970-2527)) (Homo sapiens (Human), UniProt Q5S007, G2019S)
Sequence (Q5S007 970-2527 G2019S): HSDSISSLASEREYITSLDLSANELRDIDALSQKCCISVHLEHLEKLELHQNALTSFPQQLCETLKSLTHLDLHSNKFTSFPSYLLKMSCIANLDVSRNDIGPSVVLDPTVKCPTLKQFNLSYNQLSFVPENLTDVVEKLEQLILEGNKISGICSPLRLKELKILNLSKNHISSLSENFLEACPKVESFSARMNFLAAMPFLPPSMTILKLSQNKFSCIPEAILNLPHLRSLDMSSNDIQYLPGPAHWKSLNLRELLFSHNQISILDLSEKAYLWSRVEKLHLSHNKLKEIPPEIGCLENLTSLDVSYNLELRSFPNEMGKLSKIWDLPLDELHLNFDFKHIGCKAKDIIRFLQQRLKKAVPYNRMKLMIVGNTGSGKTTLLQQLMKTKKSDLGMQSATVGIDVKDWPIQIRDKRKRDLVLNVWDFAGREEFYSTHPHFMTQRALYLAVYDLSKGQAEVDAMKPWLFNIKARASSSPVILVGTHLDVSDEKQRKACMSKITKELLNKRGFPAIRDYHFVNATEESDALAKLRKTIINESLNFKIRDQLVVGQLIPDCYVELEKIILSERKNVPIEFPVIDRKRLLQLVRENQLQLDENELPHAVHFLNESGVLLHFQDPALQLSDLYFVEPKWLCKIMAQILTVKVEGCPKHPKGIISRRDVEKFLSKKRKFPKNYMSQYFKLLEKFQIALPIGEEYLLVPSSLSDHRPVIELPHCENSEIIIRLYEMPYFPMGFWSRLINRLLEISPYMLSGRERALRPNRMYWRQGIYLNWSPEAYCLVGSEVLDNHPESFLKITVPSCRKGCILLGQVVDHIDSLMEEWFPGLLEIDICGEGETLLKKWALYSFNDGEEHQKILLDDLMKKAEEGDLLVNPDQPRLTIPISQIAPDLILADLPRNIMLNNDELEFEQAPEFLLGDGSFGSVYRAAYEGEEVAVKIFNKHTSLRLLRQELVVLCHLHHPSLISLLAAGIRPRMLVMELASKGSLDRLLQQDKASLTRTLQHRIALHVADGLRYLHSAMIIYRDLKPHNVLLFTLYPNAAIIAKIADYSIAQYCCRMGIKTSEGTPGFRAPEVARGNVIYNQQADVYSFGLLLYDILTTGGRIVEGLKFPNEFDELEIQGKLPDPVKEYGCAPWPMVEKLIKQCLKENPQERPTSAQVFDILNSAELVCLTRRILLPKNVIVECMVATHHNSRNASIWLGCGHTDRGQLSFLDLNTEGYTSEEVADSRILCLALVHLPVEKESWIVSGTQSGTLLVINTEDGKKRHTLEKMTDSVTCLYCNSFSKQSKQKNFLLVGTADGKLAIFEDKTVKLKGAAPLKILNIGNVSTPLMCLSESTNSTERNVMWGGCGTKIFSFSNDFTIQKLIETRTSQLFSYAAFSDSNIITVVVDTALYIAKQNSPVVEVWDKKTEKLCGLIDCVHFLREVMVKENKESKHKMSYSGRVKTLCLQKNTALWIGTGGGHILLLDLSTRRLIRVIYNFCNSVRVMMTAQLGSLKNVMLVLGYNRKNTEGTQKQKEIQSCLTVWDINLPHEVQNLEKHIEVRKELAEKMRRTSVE
assay-remarks: LRRK2 Km ATP LanthaScreen Assay
stated-conditions: mean IC50 of several test results
Recorded pIC50 for the following compounds
# pIC50: negative log10 of molar concentration; output just the value

CN(C)C(=O)CN1CCN(c2cc(-n3ncc4ccc(-c5cnn(C)c5)cc43)ccn2)CC1 | 7.47
CCc1nnc2n1CCN(c1cc(-n3ncc4ccc(OC(C)C)cc43)ccn1)C2 | 6.36

Name the recorded pIC50 of the compound listed here: COC1CCCN(c2cc(-n3ncc4ccc(OC(C)C)cc43)ccn2)C1 (stereo not shown)
6.22

Name the recorded pIC50 of the compound listed here: "CC(C)Oc1ccc2cnn(-c3ccnc(N4CCN(CCO)CC4)c3)c2c1"
6.71

* * *

subject-of-test: LRRK2 (G2019S mutation, GST-LRRK2 (amino acids 970-2527)) (Homo sapiens (Human), UniProt Q5S007, G2019S)
assay-remarks: LRRK2 Km ATP LanthaScreen Assay
stated-conditions: mean IC50 of several test results
Method: Unless otherwise noted, all LRRK2 IC50 data presented in tables refers to the LRRK2 Km ATP LanthaScreen™ Assay that is described in the Biological Assay section. […] e) Plates are incubated at room temperature for 1 hour and read on an Envision™ multi-mode plate reader with LanthaScreen™ settings. Results are analysed using Assay Data Analyzer.
Recorded log10 of IC50 for the following molecules
Heads up, the numbers here are log10 of IC50 in nM units.

Consider the following illustrative entries.
CC(C)Oc1ccc2cnn(-c3ccnc(N4CCN(C)CC4)c3)c2c1 | 2.26
CCn1cc(-c2ccc3cnn(-c4ccnc(N5CCOCC5)c4)c3c2)cn1 | 2.11
Cn1cc(-c2ccc3cnn(-c4ccnc(N5CCCC5)c4)c3c2)cn1 | 1.87
CN1CCN(c2cc(-n3ncc4ccc(-c5cnn(C)c5)cc43)ccn2)CC1 | 1.75
c1cc(-n2ncc3ccc(-c4cn[nH]c4)cc32)cc(N2CCOCC2)n1 | 1.86

Name the recorded log10 of IC50 of the molecule listed here: "CC(C)Oc1ccc2cnn(-c3ccnc(N4CCC4)c3)c2c1"
2.77

Name the recorded log10 of IC50 of the molecule listed here: "Cn1cc(-c2ccc3cnn(-c4ccnc(N5CCN(S(C)(=O)=O)CC5)c4)c3c2)cn1"
1.65

Name the recorded log10 of IC50 of the molecule listed here: "COC1(C)CN(c2cc(-n3ncc4ccc(OC(C)C)cc43)ccn2)C1"
2.95

Name the recorded log10 of IC50 of the molecule listed here: "Cn1cc(-c2ccc3cnn(-c4ccnc(N5CCN(C(=O)OC(C)(C)C)CC5)c4)c3c2)cn1"
1.53

Name the recorded log10 of IC50 of the molecule listed here: "C[C@@H]1CN(c2cc(-n3ncc4ccc(-c5cnn(C)c5)cc43)ccn2)CCO1"
1.95

Name the recorded log10 of IC50 of the molecule listed here: "CC(C)Oc1ccc2cnn(-c3ccnc(N4CCO[C@@H](C)C4)c3)c2c1"
2.79

* * *

subject-of-test: LRRK2 (G2019S mutation, GST-LRRK2 (amino acids 970-2527)) (Homo sapiens (Human), UniProt Q5S007, G2019S)
assay-remarks: LRRK2 Km ATP LanthaScreen Assay
stated-conditions: mean IC50 of several test results
# label = Met if IC50 < 0.2 µM else Not met

Please review the entries below; each comes with its answer.
Cn1cc(-c2ccc3cnn(-c4ccnc(N5CCN(CCO)CC5)c4)c3c2)cn1 [Example 55] | Met
CS(=O)(=O)N1CCN(c2cc(-n3ncc4ccc(-c5ccn[nH]5)cc43)ncn2)CC1 [Example 64] | Met
CC(C)Oc1ccc2cnn(-c3ccnc(N4CC[C@@H](F)C4)c3)c2c1 [Example 42] | Not met
CS(=O)(=O)N1CCN(c2cc(-n3ncc4ccc(-c5cccnc5)cc43)ncn2)CC1 [Example 62] | Not met
CC(C)Oc1ccc2cnn(-c3ccnc(N4CCN(C)C(=O)C4)c3)c2c1 [Example 31] | Not met

Bench note: check whether Cn1cc(-c2ccc3cnn(-c4ccnc(N5CC(F)(F)C5)c4)c3c2)cn1 [Example 11] shows IC50 below 0.2 µM
Not met

Bench note: check whether Cn1cc(-c2cc(F)c3cnn(-c4ccnc(N5CCOCC5)c4)c3c2)cn1 [Example 3] shows IC50 below 0.2 µM
Not met

Bench note: check whether Cn1cncc1-c1ccc2cnn(-c3ccnc(N4CCOCC4)c3)c2c1 [Example 6] shows IC50 below 0.2 µM
Met

Bench note: check whether CC(C)Oc1ccc2cnn(-c3ccnc(N4CCO[C@H](C)C4)c3)c2c1 [Example 29] shows IC50 below 0.2 µM
Not met
